Target: Nucleic Acid
Experiment: Inhibition of telomerase by TRAP assay
PARAMETER: IC50

INSERT INTO results (mol_smiles, tested_target, value_measured) VALUES
  ('CN(C)CCSc1ccc(-c2cc(-c3ccc(SCCN(C)C)cc3)ncn2)cc1', 'Nucleic Acid', '> 40 µM'),
  ('COCCSc1ccc(-c2cc(-c3ccc(SCCOC)cc3)ncn2)cc1', 'Nucleic Acid', '> 40 µM'),
  ('c1nc(-c2ccc(SCCN3CCCCC3)cc2)cc(-c2ccc(SCCN3CCCCC3)cc2)n1', 'Nucleic Acid', '> 40 µM'),
  ('CN(C)CCNC(=O)c1ccc(-c2cc(-c3ccc(C(=O)NCCN(C)C)cc3)ncn2)cc1', 'Nucleic Acid', '> 40 µM'),
  ('CCN(CC)CCNC(=O)c1ccc(-c2cc(-c3ccc(C(=O)NCCN(CC)CC)cc3)ncn2)cc1', 'Nucleic Acid', '10 µM');
